List of ΔTm values.
target.of.assay: Alkyldihydroxyacetonephosphate synthase, peroxisomal (Homo sapiens)
method.description: Binding affinity to AGPS (unknown origin) assessed as change in melting temperature at 180 uM by ThermoFAD assay
// return numeric value only (unit: °C, not printed)

Examples from the recorded data:
COc1ccccc1C(C)CC(=O)NCc1ccc2[nH]c(=O)[nH]c2c1 (stereo not drawn)
0
CC(C(=O)NCc1ccc2[nH]c(=O)[nH]c2c1)c1c(F)cccc1F (stereo not drawn)
1
CC(CC(=O)Nc1ccc2[nH]c(=O)[nH]c2c1)c1c(F)cccc1F (stereo not drawn)
0
CC(CC(=O)NCc1ccc2[nH]c(=O)[nH]c2c1)c1ccc(F)cc1 (stereo not drawn)
4
CC(CC(=O)NCc1ccc2[nH]c(=O)[nH]c2c1)c1cccc(F)c1 (stereo not drawn)
3
O=C(/C=C/c1ccccc1F)NCc1ccc2[nH]c(=O)[nH]c2c1
0
CC(CC(=O)NCc1ccc2[nH]cnc2c1)c1c(F)cccc1F (stereo not drawn)
0
C/C(=C\c1ccccc1F)C(=O)NCc1ccc2[nH]c(=O)[nH]c2c1
2

**Q:** Name the recorded ΔTm for CC(CC(=O)NCc1ccc2[nH]c(=O)[nH]c2c1)c1ccc(F)cc1F (stereo not drawn) .
**A:** 3.5

**Q:** Fill blank: measured ΔTm of the compound CCC(CC(=O)NCc1ccc2[nH]c(=O)[nH]c2c1)c1ccccc1F (stereo not drawn) is ____.
**A:** 1

**Q:** Please report the recorded ΔTm for `O=C(CCc1ccccc1F)NCc1ccc2[nH]c(=O)[nH]c2c1` .
**A:** 0

**Q:** Name the recorded ΔTm for CC(CC(=O)NCc1ccc2[nH]c(=O)[nH]c2c1)c1c(F)cccc1F (single isomer, unassigned; (+)) .
**A:** 6

**Q:** # query: ΔTm of entry O=C(CC(c1ccccc1)c1ccccc1F)NCc1ccc2[nH]c(=O)[nH]c2c1 (stereo not drawn)
**A:** 0

**Q:** // lookup ΔTm for CC(CC(=O)NCc1ccc2[nH]c(=O)[nH]c2c1)c1ccccc1Br (stereo not drawn)
**A:** 3.5

**Q:** Return reported ΔTm; argument: `C[C@H](CC(=O)NCc1ccc2[nH]c(=O)[nH]c2c1)c1c(F)cccc1F`
**A:** 3

**Q:** Consider the compound CC(CC(=O)NCc1ccc2[nH]c(=O)[nH]c2c1)c1ccccc1 (stereo not drawn) and give its measured ΔTm.
**A:** 1.5

**Q:** Please look up its ΔTm: CC(CC(=O)NCc1ccc2[nH]c(=O)[nH]c2c1)c1ccccc1Cl (stereo not drawn)
**A:** 3.5

**Q:** State the recorded ΔTm for this entry: CC(CC(=O)NCc1ccc2[nH]c(=O)[nH]c2c1)c1c(F)cccc1F (stereo in doubt; 2i)
**A:** 5

**Q:** State the recorded ΔTm for this entry: `C/C(=C\C(=O)NCc1ccc2[nH]c(=O)[nH]c2c1)c1ccccc1F`
**A:** 0

**Q:** Consider the compound CC(Cc1ccccc1F)C(=O)NCc1ccc2[nH]c(=O)[nH]c2c1 (stereo not drawn) and give its measured ΔTm.
**A:** 3

###

method.description: Cytotoxicity against human 231MFP cells assessed as cell survival at 500 uM after 48 hrs by MTS assay relative to control
Format: cell-based
condition.info: read-out: Activity
outcome.measure: viability at 48 h, 500 µM (%)
Reply numerically in %, unit not repeated.

**Q:** Please give the measured viability at 48 h, 500 µM for this compound: CC(CC(=O)NCc1ccc2[nH]c(=O)[nH]c2c1)c1c(F)cccc1F (stereo in doubt; 2i)
**A:** 57

###

method.description: Cytotoxicity against human 231MFP cells assessed as cell survival at 500 uM after 24 hrs by MTS assay relative to control
Type: cell-based
condition.info: read-out: Activity
outcome.measure: viability at 24 h, 500 µM (%)
Form entry: value (%) — number only.

**Q:** What value of measured viability at 24 h, 500 µM is listed for CC(CC(=O)NCc1ccc2[nH]c(=O)[nH]c2c1)c1c(F)cccc1F (stereo in doubt; 2i) ?
**A:** 44

###

target.of.assay: Alkyldihydroxyacetonephosphate synthase, peroxisomal (Homo sapiens)
method.description: Inhibition of AGPS (unknown origin) using palmitoyl-DHAP as substrate in presence of [1-14C]hexadecanol by radioactivity based enzymatic assay
Calls of active or inactive are those of the source. The rule behind the calls is not given here.
Bench note: report the call from active, inactive

See these solved cases before continuing.
CC(CC(=O)NCc1ccc2[nH]cnc2c1)c1c(F)cccc1F (centres undefined)
inactive
CC(CC(=O)NCc1ccc2[nH]c(=O)[nH]c2c1)c1c(F)cccc1F (stereo in doubt; 2i)
active
O=C(CC(c1ccccc1)c1ccccc1F)NCc1ccc2[nH]c(=O)[nH]c2c1 (centres undefined)
inactive

**Q:** Outcome? CC(C(=O)NCc1ccc2[nH]c(=O)[nH]c2c1)c1c(F)cccc1F (centres undefined)
**A:** inactive

###

Measured ΔTm values are reported for all entries that follow.
target.of.assay: Alkyldihydroxyacetonephosphate synthase, peroxisomal (Homo sapiens)
method.description: Binding affinity to AGPS (unknown origin) assessed as change in melting temperature at 180 uM by ThermoFAD assay
Report only the number, with the unit °C understood.

CC(CC(=O)NCc1ccc2ncc(=O)[nH]c2c1)c1c(F)cccc1F (stereo not drawn)
0
Cc1ccccc1C(C)CC(=O)NCc1ccc2[nH]c(=O)[nH]c2c1 (stereo not drawn)
3

**Q:** So what ΔTm did CC(CC(=O)NCc1ccc2[nH]c(=O)[nH]c2c1)c1ccccc1F (stereo not drawn) get with Alkyldihydroxyacetonephosphate synthase, peroxisomal (Homo sapiens)?
**A:** 3.5
